This collection of values is drawn from the RNAGym collection of RNA variant scans (doi:10.7554/elife.80360).

Please go through the items and note down their self-cleavage.
B1: HDV Ribozyme (parent)
chain: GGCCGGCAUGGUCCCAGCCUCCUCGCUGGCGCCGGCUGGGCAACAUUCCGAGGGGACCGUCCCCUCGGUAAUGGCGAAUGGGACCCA

Variants of: B1
assay notes: self-cleavage, relative activity (ratio to wild type); higher = more cleavage; co-transcriptional

Field: example entries. Status: answers known.
[
  {
    "variant label": "C30G C75G",
    "self-cleavage": 0.0997
  },
  {
    "variant label": "A8C U47C",
    "self-cleavage": 0.665
  },
  {
    "variant label": "C14U C41A",
    "self-cleavage": 1.06
  }
]

Hi, could you look up self-cleavage for each item in my list?
1. G10U C48A
2. A45G U72A
3. G17C C84U
4. G54U A83U

1. 0.698
2. 0.604
3. 0.326
4. 0.446

Hi, could you look up self-cleavage for each item in my list?
1. C7A G54C
2. C24A C48A
3. C13U G67U
4. G10C G76U
5. U46A G54A
6. C49G G55A

[0.8, 0.717, 0.712, 1.16, 0.763, 0.976]
